B1: TPR 5TU (parent)
chain: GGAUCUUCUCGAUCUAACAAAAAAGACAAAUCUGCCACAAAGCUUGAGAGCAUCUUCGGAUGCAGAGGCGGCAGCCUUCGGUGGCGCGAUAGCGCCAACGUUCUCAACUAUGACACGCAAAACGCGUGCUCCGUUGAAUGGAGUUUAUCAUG

- Variants of: B1
- protocol_details: polymerase ribozyme fitness, log enrichment relative to wild type (log ratio); higher = more active; in vitro selection for triplet polymerase activity
Variants at the floor of the assay were thinned out.
measure: polymerase ribozyme fitness (log ratio)
# answer = number (no unit)

Here is how some variants turned out for polymerase ribozyme fitness (log ratio).
{"columns": ["var", "polymerase ribozyme fitness (log ratio)"],
 "data": [
  ["A20G U53A", -1.01],
  ["C38A C85A", -2.61],
  ["C38A G50C C96A", -4.12],
  ["A24U U45A", -3],
  ["A60C G92U A97G", -2.29]
]}

Enquiry: What value of polymerase ribozyme fitness (log ratio) has been reported for the following variant? A3U U15C G81U A97U G128U
Return: -3.58

Enquiry: What value of polymerase ribozyme fitness (log ratio) has been reported for the following variant? C5A U7C G92C U139G
Return: -1.27
